- Test system: MT-4 cells
- test: Cytotoxicity assay in MT-4 cells
- Format: cell-based
- testConditions: uninfected MT-4 cells, 5 days, Cell Titer Glo; read-out: CC50
In plain terms, low CC50, meaning strictly below 9 µM, gives label 1, and everything else gives label 0.

{"compound": "C[C@@H]1CCC[C@H](C)N2CN1n1cc(C(=O)NCc3c(F)cc(F)cc3F)c(=O)c(O)c1C2=O [Example C14]", "classification": "label 1"}
{"compound": "C[C@@H]1CC(F)(F)[C@H](C)N2CN1n1cc(C(=O)NCc3c(F)cc(F)cc3F)c(=O)c(O)c1C2=O [Example C35]", "classification": "label 0"}
{"compound": "C[C@@H]1c2nc[nH]c2[C@H](C)N2CN1n1cc(C(=O)NCc3ccc(F)cc3F)c(=O)c(O)c1C2=O [Example C60]", "classification": "label 0"}
{"compound": "C[C@H]1C=C[C@H](C)N2CN1C(=O)c1c(O)c(=O)c(C(=O)NCc3c(F)cc(F)cc3F)cn12 [Example C26]", "classification": "label 0"}
{"compound": "C[C@@H]1C=C[C@@H](C)N2CN1C(=O)c1c(O)c(=O)c(C(=O)NCc3ccc(F)cc3F)cn12 [Example C68]", "classification": "label 0"}
{"compound": "C[C@@H]1CCC[C@H](C)N2CN1n1cc(C(=O)NCc3c(F)cc(F)cc3F)c(=O)c(O)c1C2=O [Example C8]", "classification": "label 1"}

----------
- Test system: pLai RLuc reporter virus
- test: HIV MT-4 serum shift antiviral reporter assay
- Assay type: cell-based
- testConditions: Human immunodeficiency virus 1, 72 h, read-out: RLUC 50% HS (nM), HS/CCM: 50% human serum, 72 h, Renilla Glo

{"entrySmiles": "C[C@@H]1C/C=C\\[C@H](C)N2CN1n1cc(C(=O)NCc3c(F)cc(F)cc3F)c(=O)c(O)c1C2=O", "assayTarget": "pLai RLuc reporter virus", "EC50 / nM": 273}
{"entrySmiles": "C[C@H]1C=C[C@@H](CF)N2CN1n1cc(C(=O)NCc3ccc(F)cc3F)c(=O)c(O)c1C2=O", "assayTarget": "pLai RLuc reporter virus", "EC50 / nM": 1730}
{"entrySmiles": "C[C@@H]1C/C=C\\CN2CN1n1cc(C(=O)NCc3c(F)cc(F)cc3F)c(=O)c(O)c1C2=O", "assayTarget": "pLai RLuc reporter virus", "EC50 / nM": 19.4}
{"entrySmiles": "C[C@@H]1C[C@H](F)[C@H](C)N2CN1n1cc(C(=O)NCc3c(F)cc(F)cc3F)c(=O)c(O)c1C2=O", "assayTarget": "pLai RLuc reporter virus", "EC50 / nM": 938}
{"entrySmiles": "C[C@@H]1CC[C@H](C)N2CN1n1cc(C(=O)NCc3ccc(F)cc3F)c(=O)c(O)c1C2=O", "assayTarget": "pLai RLuc reporter virus", "EC50 / nM": 325}
{"entrySmiles": "C[C@@H]1C=C[C@H](C)N2CN1n1cc(C(=O)NCc3c(F)cc(F)cc3F)c(=O)c(O)c1C2=O", "assayTarget": "pLai RLuc reporter virus", "EC50 / nM": 328}
{"entrySmiles": "CO[C@@H]1CC[C@H](C)N2CN1n1cc(C(=O)NCc3c(F)cc(F)cc3F)c(=O)c(O)c1C2=O", "assayTarget": "pLai RLuc reporter virus", "EC50 / nM": 196}
